For each record, write down the corresponding apparent KD of K4 kissing-loop reporter.
- System: K4 kissing-loop RNA reporter;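 further: bound reporter read as fluorescence of individual clusters on recovered sequencing chips by microscopy, with normalized cluster intensities fitted with a binding model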
- PROTOCOL NOTES: apparent KD of K4 kissing-loop reporter; higher = weaker reporter binding
- MEASUREMENT PARAMETERS: Eterna round: R107; input ligand: none
Just the number please, in nM, no unit attached.

Problem: Item under review: GCCGUACGCAUGGAUACCAGCAAUCAAACGUCAUGCGAAGUGAUGUUUCGCUUACGGUAGUGCCCUUGGCAGCCAUGCGUACGGC . Reported apparent KD of K4 kissing-loop reporter?
Result: 123

Problem: Also AUUAUAAAGUCGGCCGCCACUGAGAGUAGUGAUGUUACUCUUUUCCUUUAGAUAUUAUAUUUUAUCAGGACCGGGACAUCAGAUU [JR_ExcTryptoB_Sub020] ?
Result: 208

Problem: Also AAGUGAUGUUGUAGUGAUGUUGUGAUGUUGCAGGAUAUAUAGUGAUGUAGAAGGGUAUGUACAGAUUUUUUUUUUGAGUGAUGUU [ffdcmullin] ?
Result: 73.8
